Tested on: Mus musculus
assay_protocol: Cmax in CD1 mouse at 10 mg/kg, ip measured at 10 to 1440 mins post dose by LC-MS/MS analysis
Assay type: ADME, organism-based
Parameters: dose 10 mg/kg, route intraperitoneal
condition_set: mouse, in vivo
readout_kind: Cmax (µM)
Report the value in µM with no unit label.

As a guide, the following entries are already answered.
{"compound": "CCCC[S+]([O-])c1sc2nc(-c3nccs3)cc(-c3ccc(OCCO)cc3)c2c1N (stereo not drawn)", "Cmax, µM": 13}
{"compound": "COCC[S+]([O-])c1sc2nc(-c3nccs3)cc(-c3cnc(C)n3C)c2c1N (stereo not drawn)", "Cmax, µM": 6.2}

# Cmax of CCCC[S+]([O-])c1sc2nc(-c3nccs3)nc(-c3ccccc3)c2c1N (racemic) = 10.6

Value source: ChEMBL document CHEMBL4049436
